# Test system: 616215-338-R-J1-PDC spheroids with HUVEC/MSC, viability
# TEST DETAILS: Anticancer human tumor 616215-338-R-J1-PDC patient-derived colon adenocarcinoma cell line growth inhibition [PI3K]
# ASSAY CONDITIONS: second compound 1 µM; first compound 3.16 µM; stronger effect = lower value
viability, T/C for assorted compounds
OBSERVED PROPERTY: viability, T/C (%)

compound="CNC(=O)c1ccc(N2C(=S)N(c3ccc(C#N)c(C(F)(F)F)c3)C(=O)C2(C)C)cc1F + Cc1nc(NC(=O)N2CCCC2C(N)=O)sc1-c1ccnc(C(C)(C)C(F)(F)F)c1" reported=101
compound="CC(C)NCC(C(=O)N1CCN(c2ncnc3c2C(C)CC3O)CC1)c1ccc(Cl)cc1 (stereo not drawn) + CC(Nc1ccc2c(c1)OCCn1cc(N3C(=O)OCC3C(F)F)nc1-2)C(N)=O" reported=54
compound="Cn1ncc(Cl)c1-c1cc(C(=O)NC(CN)Cc2cccc(F)c2)sc1Cl (stereo not drawn) + CC(Nc1ncnc2nc[nH]c12)c1cc2cccc(Cl)c2c(=O)n1-c1ccccc1" reported=64

----------
# Test system: 616215-338-R-J1-PDC spheroids with HUVEC/MSC, viability
# TEST DETAILS: Anticancer human tumor 616215-338-R-J1-PDC cell line growth inhibition [PI3K];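 further: spheroids exposed to agents for seven days before the viability read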
# ASSAY CONDITIONS: curve of compound
IC50 for assorted compounds
OBSERVED PROPERTY: IC50

compound=CC(C)n1nc(-c2ccc3oc(N)nc3c2)c2c(N)ncnc21 reported="> 0.1 µM"
compound=CC(=O)c1c(C)c2cnc(Nc3ccc(N4CCNCC4)cn3)nc2n(C2CCCC2)c1=O reported="> 0.1 µM"
compound=C[C@@H](NC(=O)c1ncnc(N)c1Cl)c1ncc(C(=O)Nc2cc(C(F)(F)F)c(Cl)cn2)s1 reported="> 10 µM"
compound="CC(C)NCC(C(=O)N1CCN(c2ncnc3c2C(C)CC3O)CC1)c1ccc(Cl)cc1 (configuration not stated)" reported="6.53 µM [middle of 4 runs]"
compound=Cn1ncnc1[C@H]1c2n[nH]c(=O)c3cc(F)cc(c23)N[C@@H]1c1ccc(F)cc1 reported="> 0.1 µM"
compound="CC(Cn1ccc(-c2ccc(C#N)c(Cl)c2)n1)NC(=O)c1cc(C(C)O)[nH]n1 (configuration not stated)" reported="> 10 µM"
compound="Cn1ncc(Cl)c1-c1cc(C(=O)NC(CN)Cc2cccc(F)c2)sc1Cl (configuration not stated)" reported="6.53 µM [middle of 4 runs]"
compound="C#Cc1c(F)ccc2cc(O)cc(-c3ncc4c(N5CC6CCC(C5)N6)nc(OCC56CCCN5CC(F)C6)nc4c3F)c12 (configuration not stated)" reported="> 10 µM"
compound=CNC(=O)c1ccc(N2C(=S)N(c3ccc(C#N)c(C(F)(F)F)c3)C(=O)C2(C)C)cc1F reported="> 10 µM"
compound="Cn1nccc1Nc1nccc(-c2ccn(C(CO)c3ccc(Cl)c(F)c3)c(=O)c2)n1 (configuration not stated)" reported="3.91 µM [middle of 4 runs]"
compound=CCN1CCN(Cc2ccc(Nc3ncc(F)c(-c4cc(F)c5nc(C)n(C(C)C)c5c4)n3)nc2)CC1 reported="> 1 µM"
compound="C=CC(=O)N1CCN(c2nc(=O)n(-c3c(C)ccnc3C(C)C)c3nc(-c4c(O)cccc4F)c(F)cc23)C(C)C1 (configuration not stated)" reported="> 10 µM"
